# study-target: acetylcholinesterase (AChE, from an electric eel) (Electrophorus electricus, UniProt O42275)
# Sequence (O42275 24-633): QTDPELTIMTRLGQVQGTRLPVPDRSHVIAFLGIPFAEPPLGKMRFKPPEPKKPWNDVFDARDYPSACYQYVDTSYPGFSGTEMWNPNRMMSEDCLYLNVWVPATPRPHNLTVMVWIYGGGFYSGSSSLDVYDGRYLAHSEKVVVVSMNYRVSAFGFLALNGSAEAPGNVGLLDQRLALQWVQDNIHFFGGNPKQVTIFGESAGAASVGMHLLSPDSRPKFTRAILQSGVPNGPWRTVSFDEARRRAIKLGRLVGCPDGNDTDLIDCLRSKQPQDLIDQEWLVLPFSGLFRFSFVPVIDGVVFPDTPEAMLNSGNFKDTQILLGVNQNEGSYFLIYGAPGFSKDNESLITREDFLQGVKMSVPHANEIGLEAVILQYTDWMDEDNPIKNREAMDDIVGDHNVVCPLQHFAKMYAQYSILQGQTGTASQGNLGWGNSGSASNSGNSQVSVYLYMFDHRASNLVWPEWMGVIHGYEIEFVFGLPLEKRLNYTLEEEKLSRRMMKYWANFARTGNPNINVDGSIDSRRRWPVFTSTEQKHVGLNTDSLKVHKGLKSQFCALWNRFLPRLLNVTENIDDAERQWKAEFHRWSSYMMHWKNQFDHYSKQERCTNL
pIC50: −log10 of the molar value.
Entries and their pIC50 values follow.

{"compound": "Oc1cccc2ccc(CN3CCN(CCCCCNc4c5c(nc6ccccc46)CCCC5)CC3)nc12 [Compound 16h]", "pIC50": 6.68}
{"compound": "Cc1ccc2c(CN3CCN(CC(=O)Nc4c5c(nc6ccccc46)CCCC5)CC3)ccc(O)c2n1 [Compound 17b]", "pIC50": 5.60}
{"compound": "Oc1ccc(Cl)c2ccc(CN3CCN(CCCCCNc4c5c(nc6ccccc46)CCCC5)CC3)nc12 [Compound 16j]", "pIC50": 6.89}
{"compound": "Oc1c(Cl)cc(Cl)c2ccc(CN3CCN(CCNc4c5c(nc6ccccc46)CCCC5)CC3)nc12 [Compound 16c]", "pIC50": 5.57}
{"compound": "O=C(CN1CCN(Cc2ccc3cccc(O)c3n2)CC1)Nc1c2c(nc3ccccc13)CCCC2 [Compound 15a]", "pIC50": 5.69}
{"compound": "Oc1ccc(F)c2ccc(CN3CCN(CCCCCNc4c5c(nc6ccccc46)CCCC5)CC3)nc12 [Compound 16i]", "pIC50": 6.40}
